Target: T1, β-catenin (UniProt P35222 134-665, limits assumed, biotinylated in the SPR and plate assays)
T1 sequence (looked up): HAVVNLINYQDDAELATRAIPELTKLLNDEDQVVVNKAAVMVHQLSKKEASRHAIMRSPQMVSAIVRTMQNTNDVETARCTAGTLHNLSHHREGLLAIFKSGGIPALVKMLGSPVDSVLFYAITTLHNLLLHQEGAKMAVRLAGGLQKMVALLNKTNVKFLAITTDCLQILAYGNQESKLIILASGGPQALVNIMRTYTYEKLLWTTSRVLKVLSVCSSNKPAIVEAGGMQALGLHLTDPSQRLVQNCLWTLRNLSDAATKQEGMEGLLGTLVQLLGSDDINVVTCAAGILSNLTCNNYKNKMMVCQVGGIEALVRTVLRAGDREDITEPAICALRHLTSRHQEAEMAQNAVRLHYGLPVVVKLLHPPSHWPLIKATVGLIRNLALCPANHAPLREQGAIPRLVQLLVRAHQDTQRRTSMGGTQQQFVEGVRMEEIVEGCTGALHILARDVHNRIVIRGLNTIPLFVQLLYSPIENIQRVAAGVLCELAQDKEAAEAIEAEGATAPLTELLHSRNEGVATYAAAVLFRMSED
Assay: cell-based or functional assay
Bridges are numbered along the chain shown (N, C = ends). Where no end group is shown, it is not given here. [ ]: non-standard residue; d: D form. N3 = N-terminal azide group, clicked with Pra; Pra = C#CC[C@H](N)C(=O)O
Readings of Wnt Reporter EC50 for the listed binders

Solved cases below.
{"binder": "H-[2Aoc]WFLICFWG-OH [SEQ ID NO: 139]", "endpoint.value": "> 30 µM"}
{"binder": "KWILISAWE (HELM PEPTIDE1{K.W.I.L.I.S.A.W.E}$PEPTIDE1,PEPTIDE1,1:R3-9:R3$$$V2.0; SMILES CC[C@H](C)[C@@H]1NC(=O)[C@H](CC(C)C)NC(=O)[C@H]([C@@H](C)CC)NC(=O)[C@H](Cc2c[nH]c3ccccc23)NC(=O)[C@@H](N)CCCCNC(=O)CC[C@@H](C(=O)O)NC(=O)[C@H](Cc2c[nH]c3ccccc23)NC(=O)[C@H](C)NC(=O)[C@H](CO)NC1=O) [SEQ ID NO: 184]", "endpoint.value": "≤ 7.5 µM"}
{"binder": "DSRMWFLISFW-NH2 [SEQ ID NO: 85]", "endpoint.value": "> 30 µM"}
{"binder": "KWFLICEWG (HELM PEPTIDE1{K.W.F.L.I.C.E.W.G}$PEPTIDE1,PEPTIDE1,1:R3-7:R3$$$V2.0; SMILES CC[C@H](C)[C@@H]1NC(=O)[C@H](CC(C)C)NC(=O)[C@H](Cc2ccccc2)NC(=O)[C@H](Cc2c[nH]c3ccccc23)NC(=O)[C@@H](N)CCCCNC(=O)CC[C@@H](C(=O)N[C@@H](Cc2c[nH]c3ccccc23)C(=O)NCC(=O)O)NC(=O)[C@H](CS)NC1=O) [SEQ ID NO: 173]", "endpoint.value": "> 30 µM"}
{"binder": "H-MSRMWFLISFWMG-OH [SEQ ID NO: 14]", "endpoint.value": "≤ 7.5 µM"}
{"binder": "N3-WESILDEHVQRVW[Pra]-NH2 (triazole N-14) [SEQ ID NO: 33]", "endpoint.value": "> 30 µM"}

Here is the next item to consider.
Measured Wnt Reporter EC50 of KWFLICEWG (HELM PEPTIDE1{K.W.F.L.I.C.E.W.G}$PEPTIDE1,PEPTIDE1,1:R3-7:R3$$$V2.0; SMILES CC[C@H](C)[C@@H]1NC(=O)[C@H](CC(C)C)NC(=O)[C@H](Cc2ccccc2)NC(=O)[C@H](Cc2c[nH]c3ccccc23)NC(=O)[C@@H](N)CCCCNC(=O)CC[C@@H](C(=O)N[C@@H](Cc2c[nH]c3ccccc23)C(=O)NCC(=O)O)NC(=O)[C@H](CS)NC1=O) [SEQ ID NO: 181] : > 30 µM
